target: KRAS G12D protein in AsPc-1 cells (Homo sapiens, UniProt P01116, G12D); construct: endogenous in cells; host or cells: AsPc-1; assay: KRAS degradation assay (Western Blot) in AsPc-1 cells; type: cell-based; conditions: ASPC1, 24 h
Sequence (P01116 1-188 isoform P01116-2 G12D): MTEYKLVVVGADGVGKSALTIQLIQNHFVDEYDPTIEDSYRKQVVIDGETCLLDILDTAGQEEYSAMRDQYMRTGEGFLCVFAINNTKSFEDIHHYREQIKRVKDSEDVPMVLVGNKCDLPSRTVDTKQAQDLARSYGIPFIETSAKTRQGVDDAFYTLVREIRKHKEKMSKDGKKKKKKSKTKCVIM
test readout: Dmax (%)
# value in %; strip the unit string

{"columns": ["molecule", "experimental target", "observed measurement"],
 "data": [
  ["CCc1cccc2cc(O)cc(-c3ccc4c(N5CCC[C@@](C)(O)C5)nc(OCC5(CN6CCN(CC7CCC8(CC7)CCN(C(=O)c7ccc(C)c(N9CCC(=O)NC9=O)c7)CC8)CC6)CC5)nc4c3F)c12 [Example 49]", "KRAS G12D protein in AsPc-1 cells (Homo sapiens, UniProt P01116, G12D)", 57]
]}

GET /value?item= C#Cc1c(F)ccc2cc(O)cc(-c3ncc4c(N5CCCC(C)(N)C5)nc(OCC5(CN6CCN(CC7CCC8(CC7)CCN(C(=O)c7ccc(OC)c(N9CCC(=O)NC9=O)c7)CC8)CC6)CC5)nc4c3F)c12 (stereo not shown) [Example 163] &field=Dmax returns 89

* * *

Form field: Dmax (one value per entry).
biological target: KRAS WT (expanded) protein in MKN1 cells (Homo sapiens); construct: endogenous in cells; host or cells: MKN1 (MKN-1); test: KRAS degradation assay (Western Blot) in MKN1 cells; type: cell-based; conditions: MKN-1, 24 h
Sequence (P01116 1-188 isoform P01116-2): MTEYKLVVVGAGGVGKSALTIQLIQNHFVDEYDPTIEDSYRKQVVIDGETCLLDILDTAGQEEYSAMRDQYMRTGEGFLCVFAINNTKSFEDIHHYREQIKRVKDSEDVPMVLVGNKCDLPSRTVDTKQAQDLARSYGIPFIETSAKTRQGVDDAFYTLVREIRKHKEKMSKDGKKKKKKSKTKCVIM
# value in %; strip the unit string

The cases that follow already have their Dmax on record.
{"columns": ["compound", "experimental target", "Dmax / %"],
 "data": [
  ["C#Cc1c(F)ccc2cc(O)cc(-c3ncc4c(N5CCC[C@@](C)(O)C5)nc(OCC5(CN6CCN(CC7CCC8(CC7)CCN(C(=O)c7cc(N9CCC(=O)NC9=O)c(C)cc7F)CC8)CC6)CC5)nc4c3F)c12 [Example 91]", "KRAS WT (expanded) protein in MKN1 cells (Homo sapiens)", 98.9],
  ["C#Cc1c(F)ccc2cc(O)cc(-c3ncc4c(N5CCC[C@@](C)(O)C5)nc(OCC5(CN6CCN(CC7CCC8(CC7)CCN(C(=O)c7ccc(CC)c(N9CCC(=O)NC9=O)c7)CC8)CC6)CC5)nc4c3F)c12 [Example 92]", "KRAS WT (expanded) protein in MKN1 cells (Homo sapiens)", 99],
  ["C#Cc1c(F)ccc2cc(O)cc(-c3ncc4c(N5CCC[C@@](C)(O)C5)nc(OC[C@H](C)CN5CCN(CC6CCC7(CC6)CCN(C(=O)c6ccc(OC)c(N8CCC(=O)NC8=O)c6)CC7)CC5)nc4c3F)c12 [Example 46]", "KRAS WT (expanded) protein in MKN1 cells (Homo sapiens)", 100],
  ["[2H]C([2H])([2H])Oc1ccc(C(=O)N2CCC3(CCC(CN4CCN(CC5(COc6nc(N7CCC[C@@](C)(O)C7)c7cnc(-c8cc(O)cc9ccc(F)c(C#C)c89)c(F)c7n6)CC5)CC4)CC3)CC2)cc1N1CCC(=O)NC1=O [Example 170]", "KRAS WT (expanded) protein in MKN1 cells (Homo sapiens)", 99.3],
  ["C#Cc1c(F)ccc2cc(O)cc(-c3ncc4c(N5CCC[C@@](C)(O)C5)nc(OC[C@H](C)CN5CCN(CC6CCC7(CC6)CCN(C(=O)c6ccc(Cl)c(N8CCC(=O)NC8=O)c6)CC7)CC5)nc4c3F)c12 [Example 48]", "KRAS WT (expanded) protein in MKN1 cells (Homo sapiens)", 100]
]}

Consider the record given below.
Record for C#Cc1c(F)ccc2cc(O)cc(-c3ncc4c(N5CCC[C@@](C)(O)C5)nc(OC[C@H](C)CN5CCN(CC6CCC7(CC6)CCN(C(=O)c6ccc(C)c(N8CCC(=O)NC8=O)c6)CC7)CC5)nc4c3F)c12 [Example 47] under target or system KRAS WT (expanded) protein in MKN1 cells (Homo sapiens): Dmax reported as 97.4

* * *

Form field: Dmax (one value per entry).
molecular target: KRAS G12D protein in AsPc-1 cells (Homo sapiens, UniProt P01116, G12D); construct: endogenous in cells; host or cells: AsPc-1; assay: KRAS degradation assay (Western Blot) in AsPc-1 cells; type: cell-based; details: ASPC1, 24 h
# value in %; strip the unit string

{"columns": ["compound", "measure unit", "Dmax"],
 "data": [
  ["C#Cc1c(F)ccc2cc(O)cc(-c3ncc4c(N(C)[C@H]5C[C@@H]5F)nc(OC[C@H](C)CN5CCN(CC6CCC7(CC6)CCN(C(=O)c6ccc(OC)c(N8CCC(=O)NC8=O)c6)CC7)CC5)nc4c3F)c12", "%", 77.1],
  ["C#Cc1c(F)ccc2cc(O)cc(-c3ncc4c(N5CCOCC(C)(O)C5)nc(OCC5(CN6CCN(CC7CCC8(CC7)CCN(C(=O)c7ccc(OC)c(N9CCC(=O)NC9=O)c7)CC8)CC6)CC5)nc4c3F)c12 (stereo not shown)", "%", 100]
]}

Record for `[2H]C([2H])([2H])c1ccc(C(=O)N2CCC3(CCC(CN4CCN(C[C@@H](C)COc5nc(N6CCC[C@@](C)(O)C6)c6cnc(-c7cc(O)cc8ccc(F)c(C#C)c78)c(F)c6n5)CC4)CC3)CC2)cc1N1CCC(=O)NC1=O` under target or system KRAS G12D protein in AsPc-1 cells (Homo sapiens, UniProt P01116, G12D): Dmax reported as 95.3

* * *

target: KRAS G12C protein in NCI-H358 cells (Homo sapiens, UniProt P01116, G12C); construct: endogenous in cells; host or cells: NCI-H358; assay: KRAS degradation assay (Western Blot) in NCI-H358 cells; format: cell-based; conditions: 24 h
Sequence (P01116 1-188 isoform P01116-2 G12C): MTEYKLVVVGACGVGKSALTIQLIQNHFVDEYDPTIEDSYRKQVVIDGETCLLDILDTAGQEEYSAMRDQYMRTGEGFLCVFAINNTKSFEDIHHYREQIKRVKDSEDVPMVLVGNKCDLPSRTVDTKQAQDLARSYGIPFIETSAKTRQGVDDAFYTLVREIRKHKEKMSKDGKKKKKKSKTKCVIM
test readout: DC50 (nM)
# value in nM; strip the unit string

GET /value?item= C#Cc1c(F)ccc2cc(O)cc(-c3ncc4c(N5CCC[C@@](C)(O)C5)nc(OCC5(CN6CCN(CC7CCC8(CC7)CCN(C(=O)c7cc(N9CCC(=O)NC9=O)c(C)cc7F)CC8)CC6)CC5)nc4c3F)c12 [Example 91] &field=DC50 returns 6.04

GET /value?item= C#Cc1c(F)ccc2cc(O)cc(-c3ncc4c(N5CCC[C@@](C)(O)C5)nc(OC[C@H](C)CN5CCN(CC6CCC7(CC6)CCN(C(=O)c6ccc(Cl)c(N8CCC(=O)NC8=O)c6)CC7)CC5)nc4c3F)c12 [Example 48] &field=DC50 returns 17.2

* * *

Target: KRAS G12D protein in AsPc-1 cells (Homo sapiens, UniProt P01116, G12D)
Construct: endogenous in cells; host or cells: AsPc-1
Assay: KRAS degradation assay (Western Blot) in AsPc-1 cells
Assay type: cell-based
Conditions: 24 h
Method: Test Example 5: KRAS G12C, KRAS G12D, KRAS G12V, KRAS G13D, and KRAS WT (Expanded) Degradation Assays […] After the samples of the cell lysate supernatants that had been prepared were thawed from the refrigerator at −80° C., the total protein concentrations of the cell lysates were determined using a BCA protein quantification kit (Tiangen). […]
Form field: DC50 (one value per entry).

{"columns": ["compound", "experimental target", "test readout", "observed measurement"],
 "data": [
  ["C#Cc1c(F)ccc2cc(O)cc(-c3ncc4c(N5CCC[C@@](C)(O)C5)nc(OCC5(CN6CCN(CC7CCC8(CC7)CCN(C(=O)c7ccc(OC)c(N9CCC(=O)NC9=O)c7)CC8)CC6)CC5)nc4c3F)c12 [Example 7]", "KRAS G12D protein in AsPc-1 cells (Homo sapiens, UniProt P01116, G12D)", "DC50", "≤ 50 nM"],
  ["C#Cc1c(F)ccc2cc(O)cc(-c3ncc4c(N5CCC[C@@](C)(O)C5)nc(OCC5(CN6CCN(CC7CCC8(CC7)CCN(C(=O)c7ccc(C)c(N9CCC(=O)NC9=O)c7)CC8)CC6)CC5)nc4c3F)c12 [Example 6]", "KRAS G12D protein in AsPc-1 cells (Homo sapiens, UniProt P01116, G12D)", "DC50", "≤ 50 nM"]
]}

Consider the record given below.
GET /value?item= C#Cc1c(F)ccc2cc(O)cc(-c3ncc4c(N5CCC[C@@](C)(O)C5)nc(OCC5(CN6CCN(CC7CCC8(CC7)CCN(C(=O)c7ccc(Cl)c(N9CCC(=O)NC9=O)c7)CC8)CC6)CC5)nc4c3F)c12 [Example 1] &field=DC50 returns ≤ 50 nM

* * *

molecular target: KRAS G13D protein in DLD-1 cells (Homo sapiens, UniProt P01116, G13D); construct: endogenous in cells; host or cells: DLD-1; experiment: KRAS degradation assay (Western Blot) in DLD-1 cells; format: cell-based; details: 24 h
Sequence (P01116 1-188 isoform P01116-2 G13D): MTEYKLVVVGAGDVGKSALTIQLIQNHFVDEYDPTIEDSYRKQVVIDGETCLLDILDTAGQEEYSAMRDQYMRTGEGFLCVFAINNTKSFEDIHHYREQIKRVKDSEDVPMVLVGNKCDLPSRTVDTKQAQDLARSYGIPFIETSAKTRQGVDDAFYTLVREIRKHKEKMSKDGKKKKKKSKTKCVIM
Form field: DC50 (one value per entry).

{"columns": ["given smiles", "experimental target", "test readout", "observed measurement"],
 "data": [
  ["C#Cc1c(F)ccc2cc(O)cc(-c3ncc4c(N5CCC[C@@](C)(O)C5)nc(OCC5(CN6CCN(CC7CCC8(CC7)CCN(C(=O)c7ccc(OC)c(N9CCC(=O)NC9=O)c7)CC8)CC6)CC5)nc4c3F)c12", "KRAS G13D protein in DLD-1 cells (Homo sapiens, UniProt P01116, G13D)", "DC50", "≤ 50 nM"],
  ["CCc1cccc2cc(O)cc(-c3ncc4c(N5CCC[C@@](C)(O)C5)nc(OCC5(CN6CCN(CC7CCC8(CC7)CCN(C(=O)c7ccc(Cl)c(N9CCC(=O)NC9=O)c7)CC8)CC6)CC5)nc4c3F)c12", "KRAS G13D protein in DLD-1 cells (Homo sapiens, UniProt P01116, G13D)", "DC50", "≤ 50 nM"]
]}

Consider the record given below.
GET /value?item= `C#Cc1c(F)ccc2cc(O)cc(-c3ncc4c(N5CCC[C@@](C)(O)C5)nc(OCC5(CN6CCN(CC7CCC8(CC7)CCN(C(=O)c7ccc(C)c(N9CCC(=O)NC9=O)c7)CC8)CC6)CC5)nc4c3F)c12` &field=DC50 returns ≤ 50 nM

Reference source for all entries: patent US20260167622A1
